target: UniProt:Q16288
Sequence (Q16288 32-839): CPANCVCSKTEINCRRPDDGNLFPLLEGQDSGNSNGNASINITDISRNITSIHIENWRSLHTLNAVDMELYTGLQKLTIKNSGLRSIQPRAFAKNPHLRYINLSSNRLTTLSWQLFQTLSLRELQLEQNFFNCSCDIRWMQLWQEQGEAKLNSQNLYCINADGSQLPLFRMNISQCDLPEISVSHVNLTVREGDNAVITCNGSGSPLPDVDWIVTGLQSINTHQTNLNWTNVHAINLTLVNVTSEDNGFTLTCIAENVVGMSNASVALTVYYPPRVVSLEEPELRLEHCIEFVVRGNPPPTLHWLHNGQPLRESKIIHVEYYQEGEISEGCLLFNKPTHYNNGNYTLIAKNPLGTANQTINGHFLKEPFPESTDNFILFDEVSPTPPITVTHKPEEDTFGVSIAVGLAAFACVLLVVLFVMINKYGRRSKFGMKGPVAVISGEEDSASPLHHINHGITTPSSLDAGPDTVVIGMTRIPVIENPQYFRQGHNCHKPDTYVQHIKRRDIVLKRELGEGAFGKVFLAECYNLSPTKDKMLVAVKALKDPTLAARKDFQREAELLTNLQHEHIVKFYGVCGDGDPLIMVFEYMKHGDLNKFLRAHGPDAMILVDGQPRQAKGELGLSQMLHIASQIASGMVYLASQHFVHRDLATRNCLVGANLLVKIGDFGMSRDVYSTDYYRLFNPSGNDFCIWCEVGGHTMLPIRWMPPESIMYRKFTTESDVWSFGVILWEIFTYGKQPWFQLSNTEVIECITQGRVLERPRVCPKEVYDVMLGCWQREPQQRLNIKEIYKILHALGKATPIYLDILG
recordedMetric: IC50

stdin: Give IC50 for the following compound: CCc1nc(C(N)=O)c(Nc2ccc(N3CCC(Nc4ccccc4)CC3)c(OC)c2)nc1NC1CCOC(C(O)CO)C1 (stereo not shown) [FLIN-4]
stdout: > 10 µM

---

target: CDK2 (Homo sapiens)
recordedMetric: IC50

stdin: Give IC50 for the following compound: CCc1nc(C(N)=O)c(Nc2ccc(N3CCC(Nc4ccccc4)CC3)c(OC)c2)nc1NC1CCOC(C(O)CO)C1 (stereo not shown) [FLIN-4]
stdout: > 10 µM

---

target: FGFR2 (Homo sapiens)
Sequence (P21802 22-821): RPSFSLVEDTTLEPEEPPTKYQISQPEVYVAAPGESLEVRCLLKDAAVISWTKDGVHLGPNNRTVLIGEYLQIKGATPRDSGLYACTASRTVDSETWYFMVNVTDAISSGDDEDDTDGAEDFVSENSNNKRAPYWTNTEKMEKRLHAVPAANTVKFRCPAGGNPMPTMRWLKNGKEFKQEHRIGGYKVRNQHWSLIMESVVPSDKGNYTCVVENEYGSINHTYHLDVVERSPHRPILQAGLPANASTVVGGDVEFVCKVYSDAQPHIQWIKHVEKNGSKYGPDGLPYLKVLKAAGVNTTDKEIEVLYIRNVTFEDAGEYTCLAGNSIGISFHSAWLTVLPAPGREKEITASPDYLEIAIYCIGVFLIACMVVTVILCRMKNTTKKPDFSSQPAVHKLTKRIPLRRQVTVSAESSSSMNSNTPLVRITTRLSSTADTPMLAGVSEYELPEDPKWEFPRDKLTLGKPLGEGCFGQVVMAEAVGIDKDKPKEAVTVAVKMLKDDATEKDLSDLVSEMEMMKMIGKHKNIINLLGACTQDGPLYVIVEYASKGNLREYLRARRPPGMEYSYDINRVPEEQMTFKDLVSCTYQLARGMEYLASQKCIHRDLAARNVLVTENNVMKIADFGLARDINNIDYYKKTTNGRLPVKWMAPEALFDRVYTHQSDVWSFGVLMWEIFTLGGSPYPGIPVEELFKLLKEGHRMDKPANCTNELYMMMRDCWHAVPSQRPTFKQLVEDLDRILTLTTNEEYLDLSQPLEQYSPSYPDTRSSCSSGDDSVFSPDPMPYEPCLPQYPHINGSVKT
recordedMetric: IC50

stdin: Give IC50 for the following compound: CCc1nc(C(N)=O)c(Nc2ccc(N3CCC(Nc4ccccc4)CC3)c(OC)c2)nc1NC1CCOC(C(O)CO)C1 (stereo not shown)
stdout: > 10 µM

---

Target: EPHB3 (Homo sapiens, UniProt P54753)
Sequence (P54753 34-998): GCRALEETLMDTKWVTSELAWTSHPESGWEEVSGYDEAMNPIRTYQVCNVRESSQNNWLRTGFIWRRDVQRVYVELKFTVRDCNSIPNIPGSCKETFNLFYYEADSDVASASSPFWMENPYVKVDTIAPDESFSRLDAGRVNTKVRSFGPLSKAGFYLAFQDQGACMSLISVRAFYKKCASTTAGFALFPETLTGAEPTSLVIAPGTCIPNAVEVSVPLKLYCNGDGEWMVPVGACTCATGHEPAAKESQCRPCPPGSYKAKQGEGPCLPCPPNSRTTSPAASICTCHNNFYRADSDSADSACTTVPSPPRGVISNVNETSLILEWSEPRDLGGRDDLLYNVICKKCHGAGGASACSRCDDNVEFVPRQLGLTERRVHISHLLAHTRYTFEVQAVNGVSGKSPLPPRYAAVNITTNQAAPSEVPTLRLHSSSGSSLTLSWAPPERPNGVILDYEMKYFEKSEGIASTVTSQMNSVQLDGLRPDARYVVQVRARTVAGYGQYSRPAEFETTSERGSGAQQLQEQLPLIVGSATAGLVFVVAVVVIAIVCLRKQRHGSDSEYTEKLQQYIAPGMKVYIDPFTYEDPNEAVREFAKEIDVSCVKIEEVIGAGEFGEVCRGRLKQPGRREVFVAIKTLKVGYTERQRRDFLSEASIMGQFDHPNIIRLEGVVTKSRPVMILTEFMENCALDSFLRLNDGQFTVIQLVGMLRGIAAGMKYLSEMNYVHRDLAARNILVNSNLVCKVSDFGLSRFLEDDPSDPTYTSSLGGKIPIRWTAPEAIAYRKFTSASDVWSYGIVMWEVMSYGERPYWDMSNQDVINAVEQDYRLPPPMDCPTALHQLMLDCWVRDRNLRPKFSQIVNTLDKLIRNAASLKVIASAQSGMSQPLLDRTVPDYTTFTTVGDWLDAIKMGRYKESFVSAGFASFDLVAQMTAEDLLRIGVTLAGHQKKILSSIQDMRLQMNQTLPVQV
pIC50: −log10 of the molar value.
recordedMetric: pIC50

stdin: Report pIC50 from EPHB3 (Homo sapiens, UniProt P54753) testing of CCc1nc(C(N)=O)c(Nc2ccc(N3CCC(Nc4ccccc4)CC3)c(OC)c2)nc1NC1CCOC(C(O)CO)C1 (stereo not shown)
stdout: < 5.00

---

Target: EPHA1 (Homo sapiens, UniProt P21709)
Sequence (P21709 26-976): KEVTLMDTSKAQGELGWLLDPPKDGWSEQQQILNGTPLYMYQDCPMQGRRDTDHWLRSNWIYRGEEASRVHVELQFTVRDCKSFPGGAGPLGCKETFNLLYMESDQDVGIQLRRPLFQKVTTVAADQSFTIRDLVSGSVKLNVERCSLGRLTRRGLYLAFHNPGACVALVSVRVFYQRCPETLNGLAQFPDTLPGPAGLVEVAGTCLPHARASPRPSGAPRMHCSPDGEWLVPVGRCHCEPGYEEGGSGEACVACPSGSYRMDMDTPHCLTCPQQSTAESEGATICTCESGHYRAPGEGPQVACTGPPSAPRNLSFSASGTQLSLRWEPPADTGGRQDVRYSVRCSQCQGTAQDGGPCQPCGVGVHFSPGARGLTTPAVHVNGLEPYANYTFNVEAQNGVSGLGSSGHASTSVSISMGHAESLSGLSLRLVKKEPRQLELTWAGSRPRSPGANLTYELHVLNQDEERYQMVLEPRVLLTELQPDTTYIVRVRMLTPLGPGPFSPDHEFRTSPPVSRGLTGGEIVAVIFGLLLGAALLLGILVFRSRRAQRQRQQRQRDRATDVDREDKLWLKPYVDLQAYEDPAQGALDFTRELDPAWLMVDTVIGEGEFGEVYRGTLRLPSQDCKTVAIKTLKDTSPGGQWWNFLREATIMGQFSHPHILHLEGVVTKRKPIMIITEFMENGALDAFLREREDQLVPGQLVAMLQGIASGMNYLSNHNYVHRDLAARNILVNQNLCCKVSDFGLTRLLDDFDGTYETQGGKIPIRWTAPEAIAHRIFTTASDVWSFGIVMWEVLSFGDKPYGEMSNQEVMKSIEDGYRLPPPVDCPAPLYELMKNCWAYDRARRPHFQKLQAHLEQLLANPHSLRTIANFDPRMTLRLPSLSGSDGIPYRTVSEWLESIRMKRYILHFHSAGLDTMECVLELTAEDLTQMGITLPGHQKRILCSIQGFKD
pIC50: −log10 of the molar value.
recordedMetric: pIC50

stdin: Give pIC50 for the following compound: CCc1nc(C(N)=O)c(Nc2ccc(N3CCC(Nc4ccccc4)CC3)c(OC)c2)nc1NC1CCOC(C(O)CO)C1 (stereo not shown)
stdout: < 5.00
